system: Guinea Pig Ileal Longitudinal Smooth Muscle; assay: Inhibition of K+-induced tonic contraction, guinea pig ileum assay (calcium channel blocking activity); assay type: cell-based; details: Cavia porcellus; tonic contraction; 80 mM K+ challenge; 37° C.; read-out: Inhibition of K^+-Induced Contractile Responses, IC50, Tonic
Structures can show the parent of a compound that is named as a salt.
Readout name: IC50 (µM)

Compound: COc1ccc([C@@H]2Sc3c(ccc4ccccc34)N(CCN(C)C)C(=O)[C@@H]2OC(=O)c2ccccc2OC(C)=O)cc1 (relative stereo) [Compound E, hydrochloride]
IC50 (µM): 13

a = COc1ccc([C@@H]2Sc3c(ccc4ccccc34)N(CCN(C)C)C(=O)[C@@H]2OC(=O)c2cccnc2)cc1 (relative stereo) [Compound M, hydrate]
b = COc1ccc([C@@H]2Sc3c(ccc4ccccc34)N(CCN(C)C)C(=O)[C@@H]2OC(=O)c2ccccc2O)cc1 (racemic) [Compound F, hydrochloride]
c = COc1ccc([C@@H]2Sc3c(ccc4ccccc34)N(CCN(C)C)C(=O)[C@@H]2OC(=O)c2cc(OC)c(OC)c(OC)c2)cc1 (racemic) [Compound J, hydrochloride]
Rank descending by IC50. Lab note: final answer is the ordered label list.
c, b, a
(c: 70 µM, b: 45 µM, a: 16 µM)
